Quick reference: GI50 of the listed items.
Test system: MDA-MB-435
METHOD DESCRIPTION: Cytotoxicity against Homo sapiens (human) MDA-MB-435 cells after 48 hr by SRB assay
Format: functional
TEST CONTEXT: MDA-MB-435, 48 h
Numeric only. Scale: µM

Some molecules with recorded GI50:
O=C1CCS/C(=N\S(=O)(=O)c2ccc(N3N=C4c5ccccc5CC4C3c3cccs3)cc2)N1C(=O)c1ccccc1 (centres undefined) : 22.7
O=C1CCS/C(=N\S(=O)(=O)c2ccc(N3N=C4c5ccccc5CC4C3c3cccs3)cc2)N1c1ccccc1 (centres undefined) : 38.7
O=S(=O)(/N=c1\scc(-c2ccccc2)n1-c1ccccc1)c1ccc(N2N=C3c4ccccc4CC3C2c2cccs2)cc1 (centres undefined) : 38.7

Please look at the following molecule next.
For the molecule O=C1CS/C(=N\S(=O)(=O)c2ccc(N3N=C4c5ccccc5CC4C3c3cccs3)cc2)N(c2ccccc2)C1 (centres undefined) , what GI50 is on record?
29.5
